Data origin, for the record: patent US20260327294

target-of-assay: RSV A2 pre-F (RSV A2)
procedure-details: ELISA
recorded-endpoint: EC50 (µg/mL)
Numbers only here, please. The scale is µg/mL.

binder	recorded-endpoint	obs-value
F6-208 (antibody, V domains shown) VH: QVQLEESGGGVVQPGTSLRLSCSSSGVTRNTYAVHWVRQVPGKGLEWLAATSYDGTSKYYPENGHGRVSISKEYSTNMVYLEIYNLRPEDTAVYFCAKGPQGIYSYIGYFYYMDVWGKGTTVTVSS VL: QSALTQPASVSGSPGQSITLSCTGSRDDVGDYDYVSWYQHHPGKAPRLIIYDVTSRPSGVSPRFSGSKSGNTASLTISGLQADDEADYYCNSYTSSNSVVFGGGTKVTVL	EC50	0.0198
F6-70 (antibody, V domains shown) VH: QVQLVESGGGVVQPGRSLRLSCAASGFTFKNFAMHWVRQAPGKGLEWVAAVSYDGTSKYQADSVKGRFTISRDNSKNTLYLQMNSLRAEDTAVYYCARVESSGSGHYSYLGYFYCMDVWGKGTTVTVSS VL: QSALTQPASVSASPGQSITISCTGTRNDVGGYEYVSWYQQHPDKAPKLMIFDVSNRPSGVSNRFSGSKSGNTASLTISGLQAEDEADYYCSSYTINNTLVFGGGTKVTVL	EC50	0.0585

Now, please, on to the next binder.
QUERY: # get_value(readout='EC50', item= F6-124 (antibody, V domains shown) VH: QVQLVQSGTEVKKPGASVKISCKASGYTFTGNAINWVRQAPGQGLEWLGWISVNNGNTKYVQKFQGRVTMTTDTSTSTAYMELRSLGSDDTAVYYCAREVVNYGSGSLNFDSWGQGTLVTVSS VL: SYELTQPPSVSVSPGQTVSISCSGDKLGNDYVSWYQQKPGQSPVLVIYEDSKRPSGIPERFSGSNSGNTATLTISGTQAMDESDYYCQAWDGSTVIFGGGTKLTVL )
RESULT: 0.0147
